- experimental.system: M. mazei topo VI (Methanosarcina mazei, UniProt Q8PUB7+Q8PUB8)
- Construct: His tag; made in house
- Sequence (Q8PUB8 whole entry): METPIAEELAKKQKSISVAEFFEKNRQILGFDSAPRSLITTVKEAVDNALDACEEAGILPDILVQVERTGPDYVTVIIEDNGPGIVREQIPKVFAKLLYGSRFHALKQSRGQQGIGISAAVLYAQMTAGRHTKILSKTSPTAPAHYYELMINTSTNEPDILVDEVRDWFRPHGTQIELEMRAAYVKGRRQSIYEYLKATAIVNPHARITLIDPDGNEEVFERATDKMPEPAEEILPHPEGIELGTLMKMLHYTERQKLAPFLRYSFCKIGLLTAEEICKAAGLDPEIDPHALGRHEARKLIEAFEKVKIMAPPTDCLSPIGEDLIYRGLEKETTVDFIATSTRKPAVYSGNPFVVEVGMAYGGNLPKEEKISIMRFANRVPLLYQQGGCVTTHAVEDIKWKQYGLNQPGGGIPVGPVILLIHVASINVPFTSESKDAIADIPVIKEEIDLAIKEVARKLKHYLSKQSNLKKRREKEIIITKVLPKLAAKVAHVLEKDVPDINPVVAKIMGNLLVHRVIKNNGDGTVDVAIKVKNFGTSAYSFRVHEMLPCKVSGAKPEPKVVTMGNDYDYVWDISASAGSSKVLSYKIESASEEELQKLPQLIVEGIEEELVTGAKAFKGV
- Sequence (Q8PUB7 whole entry): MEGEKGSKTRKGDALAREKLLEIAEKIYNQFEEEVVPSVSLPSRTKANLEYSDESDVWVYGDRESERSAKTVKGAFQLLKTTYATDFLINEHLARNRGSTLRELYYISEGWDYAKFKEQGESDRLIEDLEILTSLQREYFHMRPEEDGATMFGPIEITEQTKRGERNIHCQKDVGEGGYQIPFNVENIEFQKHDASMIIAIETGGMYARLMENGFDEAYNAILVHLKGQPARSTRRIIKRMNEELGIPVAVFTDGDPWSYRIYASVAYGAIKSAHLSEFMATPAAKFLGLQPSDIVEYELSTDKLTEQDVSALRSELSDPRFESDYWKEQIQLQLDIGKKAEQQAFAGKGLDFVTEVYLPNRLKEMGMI
- assay.name: Agarose gel-based DNA relaxation assay
- Assay type: biochemical
- assay.context: gel relaxation assay, 1 unit (50 nM) topo VI; read-out: Approx. IC50 against M. mazei topo VI
test.readout: IC50 (µM)
One number for each entry, in µM.

Hello, I would appreciate it if you could give IC50 for each entry below.
1. O=C1c2ccccc2C(=O)c2c(O)c(O)cc(O)c21
2. CCN(CC)CCCC(C)Nc1c2ccc(Cl)cc2nc2ccc(OC)cc12 (stereo not shown)
3. O=C1c2c(O)ccc(O)c2C(=O)c2c(NCCNCCO)ccc(NCCNCCO)c21
4. CCCCCCc1ccc(O)cc1O
5. Cc1ccc(C(=O)Nc2ccc(S(=O)(=O)O)c3cc(S(=O)(=O)O)cc(S(=O)(=O)O)c23)cc1NC(=O)c1cccc(NC(=O)Nc2cccc(C(=O)Nc3cc(C(=O)Nc4ccc(S(=O)(=O)O)c5cc(S(=O)(=O)O)cc(S(=O)(=O)O)c45)ccc3C)c2)c1
6. COc1cc(NS(C)(=O)=O)ccc1Nc1c2ccccc2nc2ccccc12
7. Nc1c2ccccc2nc2ccccc12

OUT:
1: 40; 2: 8; 3: 2; 4: 30; 5: 30; 6: 30; 7: 6
